The origin of these recorded values is ChEMBL document CHEMBL1770133.

Experimental target: Glucose-dependent insulinotropic receptor (Homo sapiens)
Sequence (Q8TDV5 whole entry): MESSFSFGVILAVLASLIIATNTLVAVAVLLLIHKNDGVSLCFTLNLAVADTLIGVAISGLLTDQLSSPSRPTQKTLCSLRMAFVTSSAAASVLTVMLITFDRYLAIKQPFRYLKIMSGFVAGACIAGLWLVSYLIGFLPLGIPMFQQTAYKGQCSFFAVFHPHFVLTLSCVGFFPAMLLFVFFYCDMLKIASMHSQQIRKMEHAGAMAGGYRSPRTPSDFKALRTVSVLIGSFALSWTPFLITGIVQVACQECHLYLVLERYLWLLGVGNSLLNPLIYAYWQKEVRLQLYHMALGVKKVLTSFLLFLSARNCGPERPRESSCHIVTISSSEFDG
Protocol text: Agonist activity at human GPR119 expressed in CHO cells co-expressing Galpha15 assessed as increase of intracellular cAMP accumulation after 60 mins by HTRF assay
// values below are reported log10 EC50
Metric name: log10 EC50 (log10 of the value in nM)

INSERT INTO measurements (compound, quantitative_result) VALUES
  ('CS(=O)(=O)c1ccc(N2CCC(C3CCN(c4ncccn4)CC3)CC2)cc1', 1.99),
  ('CC(C)(C)OC(=O)N1CCC(C2CCN(c3ncccn3)CC2)CC1', 2.72),
  ('Cc1cc(N2CCC(C3CCN(C(=O)OC(C)(C)C)CC3)CC2)nc(C#N)n1', 0.00),
  ('CC(C)(C)OC(=O)N1CCC(C2CCN(c3cccnc3)CC2)CC1', 3.56),
  ('O=C(NC1CC1)c1ccc(OCCC2CC2C2CCN(c3ncc(Cl)cn3)CC2)cc1F (single isomer, unassigned; (+))', 1.15),
  ('O=C(NC1CC1)c1ccc(OCC2CC2C2CCN(c3ncc(Cl)cn3)CC2)cc1F (racemic; 51)', 1.58),
  ('Cc1ccc(N2CCC(C3CCN(c4ccc(S(C)(=O)=O)cc4)CC3)CC2)nc1', 1.26),
  ('Cc1cnc(N2CCC(C3CCN(c4cc(C#N)nc(C)n4)CC3)CC2)nc1', 0.90),
  ('CS(=O)(=O)c1ccc(N2CCC(C3CCN(c4ccc(F)cn4)CC3)CC2)cc1', 1.28),
  ('CS(=O)(=O)c1ccc(N2CCC(C3CCN(c4ccc(C(F)(F)F)cn4)CC3)CC2)cc1', 1.11),
  ('CC(C)(C)OC(=O)N1CCC(C2CCN(c3ccccn3)CC2)CC1', 2.92),
  ('O=C(NC1CC1)c1ccc(OCCC2CC2C2CCN(c3ncc(Cl)cn3)CC2)cc1F (single isomer, unassigned; (-))', 0.48),
  ('O=C(NC1CC1)c1ccc(OCCCC2CC2CCCC2CCN(c3ncc(Cl)cn3)CC2)cc1F (racemic)', -0.70),
  ('CS(=O)(=O)c1ccc(N2CCC(C3CCN(c4ccccn4)CC3)CC2)cc1', 1.59),
  ('CC(C)(C)OC(=O)N1CCC(C2CCN(c3cccc(S(C)(=O)=O)c3)CC2)CC1', 3.28),
  ('Cc1cnc(N2CCC(C3CCN(c4cc(C)nc(C#N)n4)CC3)CC2)cn1', 1.28),
  ('Clc1cnc(N2CCC([C@H]3C[C@H]3CCOc3ccc(-n4ccnn4)cc3)CC2)nc1', 0.60);
